molecular target: guinea pig serum albumin (guinea pig); test: ProteOn kinetic analysis
OBSERVATION TYPE: Kd (nM)
Dear colleague, please return just the value in nM, with no unit written.

Solved cases below.
[
  {
    "BINDER": "SEQ ID NO 145 (VHH, also called T at position 30) VHH: DVQLVESGGGVVQPGGSLRLSCAASGFTFTSFGMSWVRQAPGKGPEWVSSISGSGSDTLYADSVKGRFTISRDNSKNTLYLQMNSLRPEDTAAYYCTIGGSLSRSGQGTLVTVSS",
    "UNITS SYMBOL": "nM",
    "Kd": 13
  },
  {
    "BINDER": "SEQ ID NO 127 (VHH, also called T at position 30) VHH: DVQLVESGGGVVQPGGSLRLSCAASGFTFTSFGMSWVRQAPGKGPEWVSSISGSGSDTLYADSVKGRFTISRDNSKNTLYLQMNSLRPEDTALYYCTIGGSLSRSGQGTLVTVSS",
    "UNITS SYMBOL": "nM",
    "Kd": 8.6
  },
  {
    "BINDER": "SEQ ID NO 10 (VHH, also called R at position 30) VHH: EVQLVESGGGVVQPGGSLRLSCAASGFTFRSFGMSWVRQAPGKGPEWVSSISGSGSDTLYADSVKGRFTISRDNSKNTLYLQMNSLRPEDTALYYCTIGGSLSRSSQGTLVTVSS",
    "UNITS SYMBOL": "nM",
    "Kd": 5.1
  }
]

Okay, now this binder:
Input line: Return Kd for the following binder: SEQ ID NO 129 (VHH, also called T at position 30) VHH: DVQLVESGGGVVQPGGSLRLSCAASGFTFTSFGMSWVRQAPGKGPEWVSSISGSGSDTLYADSVKGRFTISRDNSKNTLYLQMNSLRPEDTATYYCTIGGSLSRSGQGTLVTVSS
Output line: 13
